# Test context: mouse, in vivo, ip, 25 mg/kg, pH 2.3

Smiles notation: C/C=C/C(=O)Nc1cccc(C(=O)c2ccc3c(/C=C/c4ccccn4)n[nH]c3c2)c1
T1/2 (h): 1.7

Smiles notation: O=C(NCC(F)(F)F)c1ccccc1Sc1ccc2c(/C=C/c3ccccn3)n[nH]c2c1
T1/2 (h): 2.4

Smiles notation: O=C(NCC1CC1)c1ccccc1Sc1ccc2c(/C=C/c3ccccn3)n[nH]c2c1
T1/2 (h): 0.9

Smiles notation: O=C(Nc1cccc(Cl)c1)c1ccccc1Sc1ccc2c(/C=C/c3ccccn3)n[nH]c2c1
T1/2 (h): 1.6

###

# Test context: mouse, in vivo, ip, 25 mg/kg, pH 2.3
Quick reference: T1/2 of the listed items.

Smiles notation: O=C(c1cccc(NC(=O)c2cccc3[nH]ccc23)c1)c1ccc2c(/C=C/c3ccccn3)n[nH]c2c1
T1/2: 2.8 h

Smiles notation: O=C(Nc1cccc(C(=O)c2ccc3c(/C=C/c4ccccn4)n[nH]c3c2)c1)c1ccccc1
T1/2: 5.0 h

Smiles notation: CCNC(=O)c1ccccc1Sc1ccc2c(/C=C/c3ccccn3)n[nH]c2c1
T1/2: 3.2 h

Smiles notation: O=C(Nc1cccc(C(=O)c2ccc3c(/C=C/c4ccccn4)n[nH]c3c2)c1)c1ccncc1
T1/2: 4.7 h

Smiles notation: O=C(Nc1cccc(C(=O)c2ccc3c(-c4nc5cccnc5[nH]4)n[nH]c3c2)c1)c1ccccc1
T1/2: 1.4 h

Smiles notation: O=C(NCc1ccccc1F)c1ccccc1Sc1ccc2c(/C=C/c3ccccn3)n[nH]c2c1
T1/2: 3.8 h

Smiles notation: C#CCNC(=O)c1ccccc1Sc1ccc2c(/C=C/c3ccccn3)n[nH]c2c1
T1/2: 1.4 h

Smiles notation: O=C(NC1CCC1)c1ccccc1Sc1ccc2c(/C=C/c3ccccn3)n[nH]c2c1
T1/2: 3.2 h

###

# Tested target: LCK tyrosine kinase (Homo sapiens, UniProt P06239, C224D/P223M)
# Sequence (P06239 223-509 P223M/C224D): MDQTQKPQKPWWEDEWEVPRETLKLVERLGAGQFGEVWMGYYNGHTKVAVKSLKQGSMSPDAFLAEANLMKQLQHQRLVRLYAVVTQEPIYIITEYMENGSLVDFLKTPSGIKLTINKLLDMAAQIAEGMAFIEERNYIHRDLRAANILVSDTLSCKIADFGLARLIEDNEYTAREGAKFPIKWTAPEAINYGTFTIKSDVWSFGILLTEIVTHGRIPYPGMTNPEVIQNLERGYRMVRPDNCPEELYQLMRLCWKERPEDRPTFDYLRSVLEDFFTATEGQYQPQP
# Experiment notes: LCK spectrophotometric assay
# Format: biochemical
# Test context: Table 1; compound concentration 1 µM; read-out: Lck-P* (% inhibition)

Compound: CC(C)(C)c1ccc(C(=O)Nc2cccc(C(=O)c3ccc4c(/C=C/c5ccccn5)n[nH]c4c3)c2)cc1 [Reference Example 41(s)]
inhibition at 1 µM / %: 53
--
Compound: O=C(NCc1ccncc1)c1ccccc1Sc1ccc2c(/C=C/c3ccccn3)n[nH]c2c1 [Reference Example 35(p)]
inhibition at 1 µM / %: 5
--
Compound: Cc1cc(C(=O)Nc2cccc(Oc3ccc4c(/C=C/c5ccccn5)n[nH]c4c3)c2)nn1C [Reference Example 31(b)]
inhibition at 1 µM / %: 66
--
Compound: Cc1cc(C(=O)Nc2cccc(C(=O)c3ccc4c(/C=C/c5ccccn5)n[nH]c4c3)c2)n(C)n1 [Reference Example 41(p)]
inhibition at 1 µM / %: 49
--
Compound: O=C(Nc1cccc(Oc2ccc3c(/C=C/c4c[nH]cn4)n[nH]c3c2)c1)c1ccccc1 [Reference Example 32(a)]
inhibition at 1 µM / %: 86
--
Compound: Cc1cc(C(=O)Nc2cccc(C(=O)c3ccc4c(/C=C/c5ccccn5)n[nH]c4c3)c2)n(C(C)C)n1 [Reference Example 41(x)]
inhibition at 1 µM / %: 66
--
Compound: O=C(Nc1cccc(Oc2ccc3c(/C=C/c4ccc(Cl)cc4)n[nH]c3c2)c1)c1ccccc1 [6(a)]
inhibition at 1 µM / %: 33

###

# Tested target: LCK tyrosine kinase (Homo sapiens, UniProt P06239, C224D/P223M)
# Experiment notes: LCK spectrophotometric assay
# Assay type: biochemical
# Test context: Table 1; compound concentration 1 µM; read-out: Lck-P* (% inhibition)
Metric name: inhibition at 1 µM

Molecule: O=C(c1cccc(NC(=O)c2ccc(Cl)s2)c1)c1ccc2c(/C=C/c3ccccn3)n[nH]c2c1 [Reference Example 41(o)]
Measured result: 77%
--
Molecule: O=C(NNc1ccccn1)c1ccccc1Sc1ccc2c(/C=C/c3ccccn3)n[nH]c2c1 [Reference Example 35(n)]
Measured result: 58%
--
Molecule: O=C(c1cccc(NC(=O)c2cccc3[nH]ccc23)c1)c1ccc2c(/C=C/c3ccccc3)n[nH]c2c1
Measured result: 52%
--
Molecule: Cc1cc(C(=O)Nc2cccc(C(=O)c3ccc4c(/C=C/c5ccccn5)n[nH]c4c3)c2)cc(Cl)n1 [Reference Example 41(q)]
Measured result: 53%
--
Molecule: Cc1cc(C(=O)Nc2cccc(C(=O)c3ccc4c(/C=C/c5ccccn5)n[nH]c4c3)c2)on1 [Reference Example 41(m)]
Measured result: 40%
--
Molecule: Cn1nc(C(C)(C)C)cc1C(=O)Nc1cccc(C(=O)c2ccc3c(/C=C/c4ccccn4)n[nH]c3c2)c1 [Reference Example 41(n)]
Measured result: 66%
--
Molecule: O=C(NC1CCC1)c1ccccc1Sc1ccc2c(/C=C/c3ccccn3)n[nH]c2c1 [Reference Example 35(c)]
Measured result: 11%

###

# Test system: human umbilical vein endothelial cells (HUVEC)
# Experiment notes: HUVEC proliferation assay (VEGF-stimulated, MTT)
# Format: cell-based
# Test context: Table 1; read-out: HUVEC IC50
pIC50: −log10 of the molar value.

Smiles notation: O=C(c1cccc(NC(=O)c2ccccn2)c1)c1ccc2c(/C=C/c3ccccn3)n[nH]c2c1
pIC50: 9.00

###

# Experiment notes: in vivo
# Test context: mouse, plasma, po, 25 mg/kg, pH 2.3
AUC reference

Compound: C=CCn1nc(C)cc1C(=O)Nc1cccc(C(=O)c2ccc3c(/C=C/c4ccccn4)n[nH]c3c2)c1
AUC: > 22500 ng·h/mL

Compound: CCn1nc(C)cc1C(=O)Nc1cccc(Oc2ccc3c(/C=C/c4cn(C)c(C)n4)n[nH]c3c2)c1 [Reference Example 31(f)]
AUC: > 245000 ng·h/mL

Compound: Cn1ccnc1C(=O)Nc1cccc(Oc2ccc3c(/C=C/c4ccccn4)n[nH]c3c2)c1 [Reference Example 31(e)]
AUC: > 30300 ng·h/mL

###

# Experiment notes: in vitro
# Format: in vitro ADME, human
# Test context: human, microsomes, 2 h, 5 µM
# maps each entry to its % remain (HLM, 2 h)

Smiles notation: O=CNc1ccccc1/C=C/c1n[nH]c2cc(C(=O)c3cccc(NC(=O)c4ccccc4)c3)ccc12
Units: %
% remain (HLM, 2 h): 2

Smiles notation: CNC(=O)c1ccccc1Nc1ccc2c(/C=C/c3ccccn3)n[nH]c2c1
Units: %
% remain (HLM, 2 h): 70

Smiles notation: Cc1cc(C(=O)Nc2cc(C(=O)c3ccc4c(/C=C/c5ccccn5)n[nH]c4c3)c(C)cc2C)n(C)n1
Units: %
% remain (HLM, 2 h): 94

Smiles notation: O=C(c1cccc(NC(=O)c2cccc3[nH]ccc23)c1)c1ccc2c(/C=N/n3cccc3)n[nH]c2c1
Units: %
% remain (HLM, 2 h): 97

###

# Tested target: LCK tyrosine kinase (Homo sapiens, UniProt P06239, C224D/P223M)
# Experiment notes: LCK spectrophotometric assay
# Assay type: biochemical
# Test context: Table 1; compound concentration 1 µM; read-out: Lck-P* (% inhibition)
Each entry falls in a class defined on inhibition at 1 µM; the bands are Low: < 30%; Medium: ≥ 30% and < 50%; High: ≥ 50%

Compound: O=C(Nc1cccc(C(=O)c2ccc3c(/C=C/c4ccccc4)n[nH]c3c2)c1)c1ccccc1
Label value: High
--
Compound: Cc1cnc(C(=O)Nc2cccc(Oc3ccc4c(/C=C/c5ccccc5)n[nH]c4c3)c2)s1
Label value: Low
--
Compound: O=C(Nc1cccc(C(=O)c2ccc3c(/C=C/c4ccccn4)n[nH]c3c2)c1)Oc1ccccc1 [Reference Example 41(cc)]
Label value: Medium
--
Compound: CC(=O)Nc1cccc(N(C)c2ccc3c(/C=C/c4ccccc4)n[nH]c3c2)c1
Label value: Low
--
Compound: O=C(NCCc1cccs1)c1ccccc1Sc1ccc2c(/C=C/c3ccccn3)n[nH]c2c1 [Reference Example 35(hh)]
Label value: Medium
--
Compound: CCn1nc(C)cc1C(=O)Nc1cccc(Oc2ccc3c(/C=C/c4c[nH]cn4)n[nH]c3c2)c1 [Reference Example 32(b)]
Label value: High
--
Compound: CCn1nc(C)cc1C(=O)Nc1cc(C(=O)c2ccc3c(/C=C/c4ccccn4)n[nH]c3c2)ccc1C [Reference Example 41(ee)]
Label value: Low
--
Compound: COc1cc(C(=O)Nc2cccc(C(=O)c3ccc4c(/C=C/c5ccccn5)n[nH]c4c3)c2)cc(Cl)n1 [Reference Example 41(u)]
Label value: High
--
Compound: CCCNC(=O)c1ccccc1Sc1ccc2c(/C=C/c3ccccn3)n[nH]c2c1 [Reference Example 35(a)]
Label value: Low
--
Compound: Cn1cccc1C(=O)NNC(=O)c1ccccc1Sc1ccc2c(/C=C/c3ccccn3)n[nH]c2c1 [Reference Example 35(e)]
Label value: High

###

# inhibition at 1 µM annotations
# Tested target: LCK tyrosine kinase (Homo sapiens, UniProt P06239, C224D/P223M)
# Experiment notes: LCK spectrophotometric assay
# Format: biochemical
# Test context: Table 1; compound concentration 1 µM; read-out: Lck-P* (% inhibition)

Molecule: O=C(c1cccc(NC(=O)c2cc(Cl)ccn2)c1)c1ccc2c(/C=C/c3ccccn3)n[nH]c2c1 [Reference Example 41(z)]
inhibition at 1 µM: 54%

Molecule: CCn1nc(C)cc1C(=O)Nc1cccc(C(=O)c2ccc3c(/C=C/c4ccccn4)n[nH]c3c2)c1 [Reference Example 41(a)]
inhibition at 1 µM: 50%

Molecule: O=C(c1cccc(NC(=O)c2cc(Cl)ccn2)c1)c1ccc2c(/C=C/c3ccccc3)n[nH]c2c1 [19(n)]
inhibition at 1 µM: 26%

Molecule: O=C(N/N=C/c1ccccn1)c1ccccc1Sc1ccc2c(/C=C/c3ccccn3)n[nH]c2c1 [Reference Example 36(b)]
inhibition at 1 µM: 22%
